Test: Caco-2 permeability
Type: in vitro ADME
Details: human, Caco-2; apical pH 6.5 to basolateral pH 7.4, 10 μM, mean of 2 inserts; read-out: Caco2 Permeability [Papp]
MEASURE NAME: Papp A→B at 10 μM (×10⁻⁶ cm/s)

1. CCCCN1CCC(CNC(=O)c2cc(Cl)c(N)n(C)c2=O)CC1
2. Cc1c(Cl)cc(C(=O)NCC2CCN(CC3(O)CCOCC3)CC2)c(=O)n1C(C)C
Param metric = Papp A→B at 10 μM; output whichever of 1 , 2 has the minimum value. Please respond with the label that marks your chosen entry.
1
(1: 0.2 ×10⁻⁶ cm/s, 2: 5.3 ×10⁻⁶ cm/s)
